The measurements presented in this section are drawn from paper PMC6008492.

# TESTED_ON: SPM-1 (Pseudomonas aeruginosa)
# Sequence (Q8G9Q0 entry or part of it): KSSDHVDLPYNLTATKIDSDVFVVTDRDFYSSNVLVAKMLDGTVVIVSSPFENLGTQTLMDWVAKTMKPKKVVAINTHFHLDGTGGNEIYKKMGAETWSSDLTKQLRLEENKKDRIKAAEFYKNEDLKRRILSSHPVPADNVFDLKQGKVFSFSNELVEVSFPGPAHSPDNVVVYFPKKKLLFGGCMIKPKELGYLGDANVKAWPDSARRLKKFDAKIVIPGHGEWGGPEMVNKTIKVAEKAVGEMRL
# ASSAY_NAME: SPM-1 inhibition, fluorogenic cephalosporin (FC5) hydrolysis
# Type: biochemical
# CONDITION_SET: enethiols 6 assayed as sodium salts; 10 min incubation; read-out: IC50 SPM-1 (converted)
PROPERTY_MEASURED: IC50 (µM)
Give the value, in units of µM, as a plain number.

## Task Requested read-out: IC50. Entry: O=C(O)/C(S)=C/c1csc2ccccc12 [Compound 6L]
## Result 0.4

## Task I am curious: what IC50 value has been reported for CN1CCN(NC(=O)CN2C(=O)/C(=C/c3c(F)ccc(F)c3F)SC2=S)CC1 [Compound 5k] ?
## Result 1.5

## Task Reported IC50 for Cc1cccc(C)c1/C=C1\SC(=S)N(CC(=O)NN2CCN(C)CC2)C1=O [Compound 5q] : what is it?
## Result 0.2

---

Consider the following compounds; for each one, report its IC50.
# TESTED_ON: BcII (Bacillus cereus)
# Construct: made in house
# Sequence (P04190 31-257): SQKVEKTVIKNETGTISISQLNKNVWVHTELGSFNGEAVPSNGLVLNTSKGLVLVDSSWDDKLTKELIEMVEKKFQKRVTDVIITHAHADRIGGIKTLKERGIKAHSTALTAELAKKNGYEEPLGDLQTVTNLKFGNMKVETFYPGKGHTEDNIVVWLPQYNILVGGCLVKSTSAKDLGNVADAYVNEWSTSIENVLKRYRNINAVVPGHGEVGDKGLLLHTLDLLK
# ASSAY_NAME: biochemical
# CONDITION_SET: enethiols 6 assayed as sodium salts; 10 min incubation; read-out: IC50 BcII (converted)
Numeric only. Scale: µM

## Task Item under review: O=C(O)/C(S)=C/c1ccc(F)cc1 . Reported IC50?
## Result 8.2

## Task What IC50 value was documented for this compound, O=C(O)CN1C(=O)/C(=C/c2cccc(Cl)c2Cl)SC1=S ?
## Result 22.1

## Task Fill in: IC50 of O=C(O)/C(S)=C/c1c(F)ccc(F)c1F is ___
## Result 0.3

## Task Recorded IC50 of O=C(O)CN1C(=O)/C(=C/c2c(F)ccc(F)c2F)SC1=S , please.
## Result 27

## Task Reported IC50 for CN1CCN(NC(=O)CN2C(=O)S/C(=C\c3c(Cl)ccc(Cl)c3Cl)C2=O)CC1 : what is it?
## Result 0.6

## Task Record request: IC50 value, item O=C(O)CN1C(=O)/C(=C/c2c(Cl)ccc(Cl)c2Cl)SC1=S [ML302A]
## Result 21.3

---

So I've got a bunch of molecules here, and I need their IC50 values.
# TESTED_ON: BcII (Bacillus cereus)
# Construct: made in house
# ASSAY_NAME: biochemical
# CONDITION_SET: enethiols 6 assayed as sodium salts; 10 min incubation; read-out: IC50 BcII (converted)
# number only, unit µM dropped from output

## Task // returns reported IC50 for input CN1CCN(NC(=O)CN2C(=O)/C(=C/c3c(F)cccc3Cl)SC2=S)CC1
## Result 2

## Task Form field: reported IC50 of O=C(O)/C(S)=C/c1c(Cl)ccc(Cl)c1Cl [ML302F, reference compound]
## Result 0.08

## Task Given the molecule CN1CCN(NC(=O)CN2C(=O)/C(=C/c3ccccc3Br)SC2=S)CC1 , what is its reported IC50?
## Result 14.6

## Task Which IC50 is reported for this molecule? CN1CCN(NC(=O)CN2C(=O)/C(=C/c3c(Cl)cccc3Cl)SC2=S)CC1
## Result 0.2

## Task Would you kindly share the measured IC50 for Cc1cccc(C)c1/C=C(\S)C(=O)O ?
## Result 0.2

## Task Any idea what IC50 was measured for CN1CCN(NC(=O)CN2C(=O)/C(=C/c3c(Cl)ccc(Cl)c3Cl)SC2=S)CC1 [ML302, reference compound] ?
## Result 0.3

## Task Which measured IC50 value corresponds to CN1CCN(NC(=O)CN2C(=O)/C(=C/c3c(F)ccc(F)c3F)SC2=S)CC1 ?
## Result 3.5

## Task What IC50 value was documented for this molecule, O=C(O)/C(S)=C/c1ccccc1 ?
## Result 0.7

## Task Data request, read-out IC50, for O=C(O)/C(S)=C/c1ccccc1F
## Result 4

## Task Any idea what IC50 was measured for O=C(O)CN1C(=O)/C(=C/c2ccccc2I)SC1=S ?
## Result 31.7

## Task What IC50 value was documented for this molecule, O=C(O)/C(S)=C/c1c(F)cccc1F ?
## Result 0.1

## Task Any idea what its IC50 is? The molecule is CN1CCN(NC(=O)CN2C(=O)/C(=C/c3ccccc3F)SC2=S)CC1
## Result 26.3

## Task Quick one: IC50 of O=C(O)/C(S)=C/c1ccccc1Br ?
## Result 5.8

## Task So what's the measured IC50 for this one? CN1CCN(NC(=O)CN2C(=O)/C(=C/c3cccc(Cl)c3Cl)SC2=S)CC1
## Result 1.1

## Task # lookup: IC50 of CN1CCN(NC(=O)CN2C(=O)/C(=C/c3c(F)cccc3F)SC2=S)CC1
## Result 3

## Task # get_value(readout='IC50', item= O=C(O)/C(S)=C/c1ccc(Br)cc1 )
## Result 9.9

## Task State the recorded IC50 for this entry: O=C(O)/C(S)=C/c1ccccc1Cl
## Result 0.9

## Task Which IC50 is listed for CN1CCN(NC(=O)CN2C(=O)/C(=C/c3cc(Cl)ccc3Cl)SC2=S)CC1 ?
## Result 15.4

## Task Given the entry CN1CCN(NC(=O)CN2C(=O)/C(=C/c3csc4ccccc34)SC2=S)CC1 , report its measured IC50.
## Result 7.2
